- Read-out: Lipoprotein lipase (LPL), LPL (gene 4023)
- ASSAY_DETAILS: LTEA_HepaRG_LPL: Life Technologies and Expression Analysis (LTEA) Assay for Lipoprotein lipase (LPL) using HepaRG (AID 2283515)
- RECORDED_CONDITIONS: mRNA level, 48 h; actives raise or lower the signal
Activity calls are given as the source filed them. How the source made its calls: active means hit-call score of the fitted dose curve at least 0.9, where 1 is the maximum; inactive means score below 0.9.
METRIC_NAME: AC50

Some solved cases for reference:
CN(C)c1ccc(C(=C2C=CC(=[N+](C)C)C=C2)c2ccc(N(C)C)cc2)cc1 | 36 µM (active)
CCN(Cc1cccc(S(=O)(=O)O)c1)c1ccc(C(=C2C=CC(=[N+](CC)Cc3cccc(S(=O)(=O)O)c3)C=C2)c2ccccc2S(=O)(=O)[O-])cc1 | inactive
Oc1ccc2ccccc2c1 | inactive
C[C@]12CC[C@@H]3c4ccc(O)cc4CC[C@H]3[C@@H]1CC[C@H]2O | inactive
CN1C(=O)N(c2ccccc2Br)Cc2cnc(Nc3ccc4c(c3)OCC(CO)O4)nc21 (centres undefined) | 31.8 µM (active)

Query AC50 for Oc1ccccc1
inactive

Dear colleague, please send me the reported AC50 for CC1(C)NC(=O)N(c2ccc([N+](=O)[O-])c(C(F)(F)F)c2)C1=O when you can.
76.2 µM (active)

---

- ASSAY_DETAILS: Tanguay_ZF_120hpf_AXIS_legacy: (Legacy) Oregon State University Tanguay Lab 120 Hour Post-fertilization zebrafish Assay for Body Axis Malformation (AID 2283635)
Inconclusive results are not listed. Calls of active or inactive are those of the source. The calls were made as follows: active = hit-call score of the fitted dose curve at least 0.9, where 1 is the maximum; inconclusive = response in the unintended direction; inactive = score below 0.9.
Permitted responses: active, inactive

Entry O=CCCCC=O : call = ?
inactive

// param item: Cc1cccc2ccccc12 ; yields the recorded call
inactive

Field: outcome | Entry: COc1cc(C(=O)NC2CCN(C)CC2)ccc1Nc1ncc2c(n1)N(C1CCCC1)CC(F)(F)C(=O)N2C
active

Please indicate how the test categorized CCCCCCCCCCCC[N+](C)(C)C .
inactive

Recorded call for O=C(O)Cc1cc(I)c(Oc2ccc(O)c(I)c2)c(I)c1 ?
active

Look up the recorded call for CN1C(=O)CC[C@H]1c1cccnc1 in this test.
inactive

Test call for this compound, please: CCCCCCCC[Si](OCC)(OCC)OCC
inactive

How did this test come out for O=C(O)Cn1c(=O)n(Cc2ccc(Br)cc2F)c(=O)c2ccc(Cl)cc21 ?
inactive

State the result this test recorded for COCC(C)OCC(C)OCC(C)O (stereo unspecified) .
inactive

Hi, do you know how CN(C)c1ccc(C(=C2C=CC(=[N+](C)C)C=C2)c2ccc(N(C)C)cc2)cc1 came out in this test?
inactive

Status in this test for O=C(O)c1ccccc1C(=O)OCc1ccccc1 ?
inactive

Could you please tell me the result logged for CC[C@H](NC(=O)c1cc(F)ccc1NS(=O)(=O)c1cccc2cccnc12)c1ccccc1 in this assay?
inactive

Record lookup: outcome of this test for Clc1ccccc1C(c1ccccc1)(c1ccccc1)n1ccnc1 ?
active

// param item: CO[C@H]1/C=C/O[C@@]2(C)Oc3c(C)c(O)c4c(O)c(c(/C=N/N5CCN(C)CC5)c(O)c4c3C2=O)NC(=O)/C(C)=C\C=C\[C@H](C)[C@H](O)[C@@H](C)[C@@H](O)[C@@H](C)[C@H](OC(C)=O)[C@@H]1C ; yields the recorded call
inactive

So what was the verdict on CC1=CC(=O)/C(=C(/C)O)C(=O)O1 in this test?
inactive

Query: recorded result category for Cc1occc1C(=O)Nc1ccc(C(=O)N2CCC(F)(F)/C(=C\C(=O)N3CCC(N4CCCCC4)CC3)c3ccccc32)cc1 in this test
inactive

---

- ASSAY_DETAILS: Tanguay_ZF_120hpf_OTIC_legacy: (Legacy) Oregon State University Tanguay Lab 120 Hour Post-fertilization zebrafish Assay for Otic Vesicle Malformation (AID 2283639)
Records with an inconclusive call do not appear. Activity calls are given as the source filed them. Rule for the calls: active = hit-call score of the fitted dose curve at least 0.9, where 1 is the maximum; inconclusive = response in the unintended direction; inactive = score below 0.9.
Field 'call' accepts active, inactive

Could you please tell me the result logged for CCCCCCCC[Si](OCC)(OCC)OCC in this assay?
inactive

Per the records of this test, what outcome belongs to Oc1ccc2ccccc2c1 ?
active

Entry c1ccc2n[nH]nc2c1 : call = ?
inactive

Hey, what did the test say about CCN(Cc1cccnc1)C(=O)c1cccc(Cl)c1[C@]1(C)C(=O)N(Cc2ccc(OC)cc2OC)c2ccc(Cl)cc21 ?
inactive

I'd appreciate the recorded outcome for O=C(O)Cc1cc(I)c(Oc2ccc(O)c(I)c2)c(I)c1 from this test.
inactive

Would you mind telling me which call this test gave CCCCCCCCOC(=O)c1cc(O)c(O)c(O)c1 ?
inactive

Lab log entry: COc1cccc([C@H](O)C2CCN(CCc3ccc(F)cc3)CC2)c1OC — outcome as called in the assay?
inactive

Give the logged outcome of this assay for the following compound: OC12N=C(c3ccccc3)SC1Cc1cc(Cl)ccc12 (stereo not drawn)
inactive

---

- ASSAY_DETAILS: ATG_TGFb_CIS: Attagene CIS-FACTORIAL HepG2 Assay for human Transforming Growth Factor (TGF) (AID 2282967)
- RECORDED_CONDITIONS: HepG2 Attagene CIS TGFb reporter, mRNA transcription; actives raise or lower the signal
Activity calls are given as the source filed them. The calls were made as follows: active = hit-call score of the fitted dose curve at least 0.9, where 1 is the maximum; inactive = score below 0.9.
Mark one answer only. Choices: active, inactive

Any idea what this test logged for O=C(OCCCCCCOC(=O)c1ccccc1)c1ccccc1 ?
inactive

So what was the verdict on Cc1cccc2ccccc12 in this test?
inactive

Returns: the outcome recorded for c1ccc2n[nH]nc2c1 in this assay.
inactive

Please state the recorded outcome for this compound: COCC(C)OCC(C)OCC(C)O (stereo not given)
inactive

// outcome(item) with item = CCCCCCCCCCCCO
inactive

Write down the call the test reported for this compound. Item: CCO[Si](CCCNC(N)=O)(OCC)OCC
inactive

For C[C@]12CC[C@@H]3c4ccc(O)cc4CC[C@H]3[C@@H]1CC[C@H]2O , which call appears in the assay record?
inactive

Per the records of this test, what outcome belongs to c1ccc(C[n+]2cccc3ccccc32)cc1 ?
inactive

Tell me the recorded outcome of this test for CCN(CC)C(=O)c1cc(S(=O)(=O)Cc2ccccc2)c(N2CCC(c3ccccc3)CC2)cc1N(CC)CCN(C)C .
inactive

What is the recorded call for this compound in the test? CCN(Cc1cccc(S(=O)(=O)O)c1)c1ccc(C(=C2C=CC(=[N+](CC)Cc3cccc(S(=O)(=O)O)c3)C=C2)c2ccccc2S(=O)(=O)[O-])cc1
inactive

Name the outcome recorded for Clc1cc(Cl)c2c(c1)N=C1CCCCCN1C2 in the assay.
inactive

Test call for this compound, please: COc1ccc2cc(S(=O)(=O)N[C@H](CC(=O)N[C@H](Cc3ccc(CN4[C@H](C)CCC[C@@H]4C)cc3)C(=O)N(C)C(C)C)c3ccc4c(c3)OCO4)ccc2c1
inactive

Please share the test call associated with O=C1c2ccccc2C(=O)N1CCc1noc(-c2ccc(CN3CCCCCC3)s2)n1 .
inactive

Which outcome was entered for the compound CO[C@H]1/C=C/O[C@@]2(C)Oc3c(C)c(O)c4c(O)c(c(/C=N/N5CCN(C)CC5)c(O)c4c3C2=O)NC(=O)/C(C)=C\C=C\[C@H](C)[C@H](O)[C@@H](C)[C@@H](O)[C@@H](C)[C@H](OC(C)=O)[C@@H]1C in this test?
inactive

Recorded test outcome, item CN1C(=O)CC[C@H]1c1cccnc1
inactive

Short answer needed: outcome of this test for Oc1ccccc1 ?
inactive

Outcome? CC1=CC(=O)/C(=C(/C)O)C(=O)O1
inactive

Outcome? CCCCCCCCOc1ccc(C(=O)c2ccccc2)c(O)c1
inactive

Could you check what this test reported for Oc1ccc2ccccc2c1 ?
inactive

Call for entry O=CCCCC=O :
inactive

Check the results log: what was the call for CCCCCCCCCCCO ?
inactive

Field: outcome | Entry: COc1cc(C(=O)NC2CCN(C)CC2)ccc1Nc1ncc2c(n1)N(C1CCCC1)CC(F)(F)C(=O)N2C
inactive

For this compound, state the assay outcome: C[C@]12CC[C@@H]3c4ccc(O)cc4CC[C@H]3[C@@H]1CCC2=O
inactive

Short answer needed: outcome of this test for CN(C)C(=O)C1(N2CCCCC2)CCN(CC[C@@]2(c3ccc(Cl)c(Cl)c3)CN(C(=O)c3ccccc3)CCO2)CC1 ?
inactive

Per the records of this test, what outcome belongs to CN1C(=O)N(c2ccccc2Br)Cc2cnc(Nc3ccc4c(c3)OCC(CO)O4)nc21 (stereo not given) ?
inactive

# fetch the recorded call for O=C(O)c1ccccc1-n1cc(C(=O)O)c(=O)c2cc(Nc3c(F)cc(F)cc3Cl)c(Cl)cc21 here
inactive

State the result this test recorded for c1ccc2ccccc2c1 .
inactive

Look up the recorded call for O=c1ccc2ccccc2o1 in this test.
inactive

I would be grateful if you could indicate the recorded call for OCCO .
inactive

Which outcome did this test record for the compound Cc1ncc(CO)c(CO)c1O ?
inactive

Lab log entry: CCCCOC(=O)c1ccc(O)cc1 — outcome as called in the assay?
inactive

Returns: the outcome recorded for O=C1CCC(C2CCCCC2)CC1 in this assay.
inactive

Per the records of this test, what outcome belongs to O=c1c(-c2ccc(O)cc2)coc2cc(O)cc(O)c12 ?
inactive

Check the results log: what was the call for CC/C(=C(/CC)c1ccc(O)cc1)c1ccc(O)cc1 ?
inactive

Just curious, what result did Cc1ccc(C(C)C)cc1 get here?
inactive

Answer briefly: the call reported for CCCOC(=O)c1cc(O)c(O)c(O)c1 in this assay.
inactive

What did this assay record as the result for CCCCCCCC[Si](OCC)(OCC)OCC ?
inactive

Hi, do you know how CC1(C)NC(=O)N(c2ccc([N+](=O)[O-])c(C(F)(F)F)c2)C1=O came out in this test?
inactive

Test call for this compound, please: Cc1c2ccccc2c(C)c2c1ccc1ccccc12
active

Tell me the recorded outcome of this test for CC(C)(C)c1cc(/C=C2\SC(N)=NC2=O)cc(C(C)(C)C)c1O .
inactive
